Reference source for all entries: ChEMBL document CHEMBL1201862

Test system: HCT-15
quantityKind: GI50 (µM)
Numbers only, in µM.

molecule	GI50 [µM]
CC(C)=CCc1c(O)ccc2ccc(=O)oc12	60.1

Give measured GI50 for every item shown.
1. Cc1cccc2c1CC1(C2)Cc2c(C)cccc2C1=O (centres undefined)
2. CSCSCC(CO)NC(=O)/C=C\c1c(C)[nH]c(=O)[nH]c1=O (centres undefined)
3. CCCCCCCCCCCCCCCCCCCCCCC(=O)N[C@H]1CCc2cc(OC)c(OC)c(OC)c2-c2ccc(SC)c(=O)cc21

1. 29
2. 17.9
3. 26.4

For every item below, please supply its GI50.
1. CCOC(=O)C(CC(C)C)NC(=O)C(N)Cc1ccc(N(CCCl)CCCl)cc1 (centres undefined)
2. C=CCNC(=S)OCCCCCCCCCC

1. 2.38
2. 15.8
